biological target: USP9X (Homo sapiens (Human), UniProt Q93008); assay: USP9X enzyme activity assay, ubiquitin-rhodamine110 substrate; details: read-out: USP9X IC50/UM; Table 8
Sequence (Q93008 whole entry): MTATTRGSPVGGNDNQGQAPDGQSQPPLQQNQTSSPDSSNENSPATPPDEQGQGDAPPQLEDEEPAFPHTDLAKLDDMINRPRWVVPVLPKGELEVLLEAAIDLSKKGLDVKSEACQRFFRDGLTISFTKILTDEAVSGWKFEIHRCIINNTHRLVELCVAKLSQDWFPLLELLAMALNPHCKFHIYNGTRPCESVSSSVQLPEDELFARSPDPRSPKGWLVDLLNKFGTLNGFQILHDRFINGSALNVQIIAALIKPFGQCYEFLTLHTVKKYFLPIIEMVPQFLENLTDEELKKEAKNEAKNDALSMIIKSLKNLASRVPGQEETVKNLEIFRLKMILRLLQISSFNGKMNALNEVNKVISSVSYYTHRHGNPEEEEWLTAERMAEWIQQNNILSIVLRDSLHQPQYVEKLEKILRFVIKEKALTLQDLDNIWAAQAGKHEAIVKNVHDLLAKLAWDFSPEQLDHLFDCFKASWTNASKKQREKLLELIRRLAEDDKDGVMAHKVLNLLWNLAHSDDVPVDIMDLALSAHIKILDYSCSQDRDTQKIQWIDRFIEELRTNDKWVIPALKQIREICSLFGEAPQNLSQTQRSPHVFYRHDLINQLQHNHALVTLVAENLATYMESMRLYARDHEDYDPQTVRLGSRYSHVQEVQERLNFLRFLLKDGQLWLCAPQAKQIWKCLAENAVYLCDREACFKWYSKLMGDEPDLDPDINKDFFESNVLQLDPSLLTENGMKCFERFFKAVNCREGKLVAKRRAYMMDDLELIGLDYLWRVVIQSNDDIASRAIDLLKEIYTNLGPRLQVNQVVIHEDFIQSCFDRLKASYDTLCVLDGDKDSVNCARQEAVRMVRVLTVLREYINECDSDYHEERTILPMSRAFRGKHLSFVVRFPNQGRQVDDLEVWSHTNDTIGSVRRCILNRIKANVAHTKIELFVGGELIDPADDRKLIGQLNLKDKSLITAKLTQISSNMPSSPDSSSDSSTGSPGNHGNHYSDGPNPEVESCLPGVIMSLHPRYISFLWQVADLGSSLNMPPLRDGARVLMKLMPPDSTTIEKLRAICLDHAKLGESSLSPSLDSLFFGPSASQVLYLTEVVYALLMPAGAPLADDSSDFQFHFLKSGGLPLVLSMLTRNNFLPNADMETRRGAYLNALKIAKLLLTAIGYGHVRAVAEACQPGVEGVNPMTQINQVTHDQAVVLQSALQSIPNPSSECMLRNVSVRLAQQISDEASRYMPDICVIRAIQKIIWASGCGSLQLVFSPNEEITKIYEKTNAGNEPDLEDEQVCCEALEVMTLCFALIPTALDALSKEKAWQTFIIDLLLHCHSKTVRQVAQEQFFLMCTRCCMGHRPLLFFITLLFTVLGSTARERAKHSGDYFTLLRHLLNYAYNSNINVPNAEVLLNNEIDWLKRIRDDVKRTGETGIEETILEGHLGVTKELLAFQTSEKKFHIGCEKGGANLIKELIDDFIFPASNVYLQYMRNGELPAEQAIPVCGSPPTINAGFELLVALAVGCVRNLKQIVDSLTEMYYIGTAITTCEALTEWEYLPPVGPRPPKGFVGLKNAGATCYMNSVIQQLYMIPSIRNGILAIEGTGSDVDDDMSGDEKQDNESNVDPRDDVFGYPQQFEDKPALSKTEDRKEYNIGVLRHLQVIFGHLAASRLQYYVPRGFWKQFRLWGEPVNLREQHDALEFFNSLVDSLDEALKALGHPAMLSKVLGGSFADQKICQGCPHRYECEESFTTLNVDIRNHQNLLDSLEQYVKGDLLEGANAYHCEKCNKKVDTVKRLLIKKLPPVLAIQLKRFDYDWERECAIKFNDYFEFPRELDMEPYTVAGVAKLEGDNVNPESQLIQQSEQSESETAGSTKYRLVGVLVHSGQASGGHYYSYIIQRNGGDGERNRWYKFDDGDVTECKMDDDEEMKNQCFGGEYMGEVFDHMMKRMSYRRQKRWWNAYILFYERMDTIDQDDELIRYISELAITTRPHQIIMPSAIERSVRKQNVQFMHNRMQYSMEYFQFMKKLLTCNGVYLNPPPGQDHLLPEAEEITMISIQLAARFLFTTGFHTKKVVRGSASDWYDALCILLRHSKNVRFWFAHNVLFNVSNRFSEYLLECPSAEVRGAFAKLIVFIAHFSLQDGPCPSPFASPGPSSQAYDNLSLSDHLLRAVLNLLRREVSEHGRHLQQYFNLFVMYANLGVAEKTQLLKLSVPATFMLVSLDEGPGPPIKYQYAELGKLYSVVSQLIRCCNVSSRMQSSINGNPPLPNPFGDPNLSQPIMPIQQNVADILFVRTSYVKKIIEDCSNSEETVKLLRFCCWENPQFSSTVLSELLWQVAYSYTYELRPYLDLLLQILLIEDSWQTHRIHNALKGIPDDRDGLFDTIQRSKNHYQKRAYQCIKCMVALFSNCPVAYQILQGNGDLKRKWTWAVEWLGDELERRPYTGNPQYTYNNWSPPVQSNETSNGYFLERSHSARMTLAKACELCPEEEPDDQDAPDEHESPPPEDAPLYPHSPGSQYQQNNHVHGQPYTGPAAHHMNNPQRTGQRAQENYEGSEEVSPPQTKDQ
pIC50: −log10 of the molar value.
Parameter pIC50: see the listing below.

[
  {
    "molecule": "CC(=O)NCc1cccc(C(=O)N[C@@H](CC(C)(C)C)C(=O)Nc2ccc(CCNC(=O)CC(C)(C)CC(=O)NCCOc3ccc(C(=O)O)cc3)cc2)c1 [Compound 73]",
    "pIC50": 4.82
  },
  {
    "molecule": "CC(=O)NCc1cccc(C(=O)N[C@@H](CC(C)(C)C)C(=O)Nc2ccc(CCN(C)C)cc2)c1 [Compound 50]",
    "pIC50": 5.64
  },
  {
    "molecule": "CN(C)CCOc1ccc(C(=O)NCc2cccc(C(=O)N[C@@H](CC(C)(C)C)C(=O)NCc3ccccn3)c2)cc1 [Compound 28]",
    "pIC50": 4.49
  }
]
